Would you kindly list MIC for each of these molecules?
Tested on: Mycobacterium tuberculosis
Procedure Details: Antitubercular activity against Mycobacterium tuberculosis H37Rv by microplate alamar blue assay
Format: functional
Express your answer in µg/mL, writing the number without its unit.

Specify measured MIC for O=c1c(O[C@@H]2O[C@H](CO)[C@@H](O)[C@H](O)[C@H]2O)c(-c2ccc(O)c(O)c2)oc2cc(O)cc(O)c12 . 94

Identify the reported MIC for the following entry. C=C[C@@]1(C)C=C2CC[C@@H]3[C@@](C)(CCC(=O)[C@@]3(C)CO)[C@H]2C[C@H]1O 128

Complete the entry with MIC for CO[C@H]1/C=C/O[C@@]2(C)Oc3c(C)c(O)c4c(O)c(c(/C=N/N5CCN(C)CC5)c(O)c4c3C2=O)NC(=O)/C(C)=C\C=C\[C@H](C)[C@H](O)[C@@H](C)[C@@H](O)[C@@H](C)[C@H](OC(C)=O)[C@@H]1C 0.06

Supply recorded MIC for C=C[C@@]1(C)C=C2CC[C@H]3C(C)(C)C(=O)C[C@@H](O)[C@@]3(C)[C@H]2C[C@H]1O here. 4

For CC1(C)CC[C@]2(C)CC[C@]3(C)C(=CC[C@@H]4[C@@]5(C)CC[C@@H](O)C(C)(C)[C@@H]5CC[C@]43C)[C@@H]2C1 , write its MIC. 12.2

Look up and state reported MIC for CC1(C)CC[C@]2(C)CC[C@]3(C)C(=CC[C@@H]4[C@@]5(C)CC[C@H](O)C(C)(C)[C@@H]5CC[C@]43C)[C@@H]2C1 64

Entry CC(C)CCC[C@@H](C)[C@H]1CC[C@@]2(C)[C@@H]3CC[C@H]4C(C)(C)[C@@H](O)CC[C@@]45C[C@@]35CC[C@]12C needs its MIC filled in; supply it. 8

Quote MIC reported for C=C(C)[C@@H]1CC[C@]2(C)CC[C@]3(C)[C@H](CC[C@@H]4[C@@]5(C)CC[C@@H](O)C(C)(C)[C@@H]5CC[C@]43C)[C@@H]12 please. 13.4
